Would you kindly list protein stability index for each of these variants?
B1: SPACA3 (parent)
chain: FTSGFNAAALDYEADGSTNNGIFQ

Variants of: B1
EXPERIMENT_SUMMARY: protein stability index of a GFP-peptide fusion (GPS, HEK-293T) (PSI 1-6); higher = more stable;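 further: lentivirally expressed fusions sorted by FACS into six bins by GFP to DsRed ratio, PSI derived from sequencing read proportions per bin multiplied by bin number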
CONDITIONS_USED: c terminus: a fixed tail appended
Give bare numbers.

Below: 4 variants and their reported protein stability index.
FTSGFNAAALDYEADGSTNEGIFQ [N20E] :: 2.21
FTSGFNAAALDTEADGSTNNGIFQ [Y12T] :: 2.41
FTSNFNAAALDYEADGSTNNGIFQ [G4N] :: 2.3
FTCGFNAAALDYEADGSTNNGIFQ [S3C] :: 1.65

Look up protein stability index for the entries below, preserving their order.
1. FTSGFNAAALDYEAKGSTNNGIFQ [D15K]
2. FTSSFNAAALDYEADGSTNNGIFQ [G4S]

Response:
1. 1.65
2. 2.38

Look up protein stability index for the entries below, preserving their order.
1. FTSGFNAAALDHEADGSTNNGIFQ [Y12H]
2. FTSGFNAAALDYEADGSTINGIFQ [N19I]
3. FTSGVNAAALDYEADGSTNNGIFQ [F5V]
4. FTSGFNYAALDYEADGSTNNGIFQ [A7Y]
5. FTSGFNAAALDYEADESTNNGIFQ [G16E]

Response:
[2.04, 1.79, 4.01, 2.31, 2.31]

Look up protein stability index for the entries below, preserving their order.
1. FTSGFNAAALAYEADGSTNNGIFQ [D11A]
2. FTLGFNAAALDYEADGSTNNGIFQ [S3L]
3. FTSGFNAAALDYEADGSTNNGPFQ [I22P]

Response:
2.16
2.2
1.94

Look up protein stability index for the entries below, preserving their order.
1. FTSGFNAAALDYEADMSTNNGIFQ [G16M]
2. FTSGFNAAALDYEADGSTNCGIFQ [N20C]
3. FTSGFNAAALDYEADGSTNNRIFQ [G21R]
4. FTSGFNAAALDIEADGSTNNGIFQ [Y12I]
5. FTSGFNAAALDYEAHGSTNNGIFQ [D15H]
6. FTSGFFAAALDYEADGSTNNGIFQ [N6F]
7. FTSGFNAAALKYEADGSTNNGIFQ [D11K]

Response:
[2, 2.33, 1.75, 2.05, 1.74, 3.46, 2.43]

Query: Using the record for FTSGFNAAGLDYEADGSTNNGIFQ [A9G] , report its protein stability index.
Response: 2.06

Values were extracted from the supplement of paper PMC10567573.
